Can you tell me pIC50 for the items I'm about to list?
pIC50: −log10 of the molar value.

Query :: State the measured pIC50 (UniProt Q13191) of CC(C)Cn1cc(CN2CCC[C@H](C)C2)cc(C(=O)Nc2cc(-c3ccc(F)cc3-c3nncn3C)cc(C3CC3)n2)c1=O
Sequence (Q13191 whole entry, species assumed): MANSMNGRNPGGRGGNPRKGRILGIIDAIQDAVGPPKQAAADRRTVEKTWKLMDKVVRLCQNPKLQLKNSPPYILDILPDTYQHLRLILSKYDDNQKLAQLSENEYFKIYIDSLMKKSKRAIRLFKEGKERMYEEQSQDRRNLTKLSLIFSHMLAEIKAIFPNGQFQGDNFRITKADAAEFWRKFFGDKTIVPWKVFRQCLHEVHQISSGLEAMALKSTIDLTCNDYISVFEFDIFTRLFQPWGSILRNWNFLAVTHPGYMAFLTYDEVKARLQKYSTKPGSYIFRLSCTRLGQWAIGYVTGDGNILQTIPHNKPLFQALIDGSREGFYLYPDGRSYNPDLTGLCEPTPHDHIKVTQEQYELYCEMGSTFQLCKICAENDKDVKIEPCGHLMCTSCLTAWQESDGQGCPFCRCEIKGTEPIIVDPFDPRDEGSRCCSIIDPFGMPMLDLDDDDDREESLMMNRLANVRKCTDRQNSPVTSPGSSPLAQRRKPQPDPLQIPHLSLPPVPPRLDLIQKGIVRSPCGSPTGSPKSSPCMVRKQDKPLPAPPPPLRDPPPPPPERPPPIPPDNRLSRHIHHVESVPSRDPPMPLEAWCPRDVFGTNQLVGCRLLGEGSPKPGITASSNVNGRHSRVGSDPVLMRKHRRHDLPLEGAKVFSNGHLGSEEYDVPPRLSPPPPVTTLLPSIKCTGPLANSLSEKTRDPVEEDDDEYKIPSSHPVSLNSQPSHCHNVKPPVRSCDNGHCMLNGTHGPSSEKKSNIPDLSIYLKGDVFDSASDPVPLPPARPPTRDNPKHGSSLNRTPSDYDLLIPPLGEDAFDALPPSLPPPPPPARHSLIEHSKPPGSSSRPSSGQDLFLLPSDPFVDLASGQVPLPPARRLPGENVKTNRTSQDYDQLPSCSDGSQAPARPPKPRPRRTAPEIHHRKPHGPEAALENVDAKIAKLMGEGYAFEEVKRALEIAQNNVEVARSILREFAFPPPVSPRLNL
Result :: > 7.00

Query :: State the measured pIC50 (UniProt Q13191) of C[C@H]1CCCN(Cc2cc(C(=O)Nc3cc(-c4ccc(F)cc4-c4nncn4C)cc(C4CC4)n3)c(=O)n(CC3CCOCC3)c2)C1
Result :: > 7.00

Query :: State the measured pIC50 (UniProt Q13191) of CC(C)Oc1cc(-c2ccc(OC(F)F)cc2C(=O)N2CC(F)(F)C2)cc(NC(=O)c2cc(CN[C@@H](C)C(C)C)cn(C3CC3)c2=O)n1
Result :: > 7.00

Query :: State the measured pIC50 (UniProt Q13191) of C[C@H](NCc1cc(C(=O)Nc2cc(-c3ccc(C#N)cc3C(=O)N3CC(F)(F)C3)cc(OCC(F)F)n2)c(=O)n(C2CC2)c1)C1CCC1
Result :: > 7.00

Query :: State the measured pIC50 (UniProt Q13191) of Cn1cnnc1-c1cc(F)ccc1-c1cc(NC(=O)c2cc(C3CC3)cn(C3CC3)c2=O)nc(C2CC2)c1
Result :: 6.00 to 7.00

Query :: State the measured pIC50 (UniProt Q13191) of C[C@H]1CCCN(Cc2cc(C(=O)Nc3cc(C#N)cc(-c4ccc(F)cc4C(=O)N4CC(F)C4)c3)c(=O)n(C3CC3)c2)C1
Result :: 6.00 to 7.00

Query :: State the measured pIC50 (UniProt Q13191) of CC(C)Oc1cc(-c2ccc(F)cc2C(=O)N2CC(F)(F)C2)cc(NC(=O)c2cc(CNC[C@@H]3CCCO3)cn(C3CC3)c2=O)n1
Result :: > 7.00

Query :: State the measured pIC50 (UniProt Q13191) of CCOc1cc(-c2ccc(Cl)cc2C(=O)N2CC(F)(F)C2)cc(NC(=O)c2cc(CN[C@@H](C)COC)cn(C3CC3)c2=O)n1
Result :: > 7.00

Query :: State the measured pIC50 (UniProt Q13191) of COCCNCc1cc(C(=O)Nc2cc(-c3ccc(C#N)cc3-c3nc(C(F)(F)F)cn3C)cc(C3CC3)n2)c(=O)n(C2CC2)c1
Result :: 6.00 to 7.00

Query :: State the measured pIC50 (UniProt Q13191) of CO[C@@H](C)[C@H](C)NCc1cc(C(=O)Nc2cc(-c3ccc(Cl)cc3C(=O)N3CC(F)C3)cc(OC(C)C)n2)c(=O)n(C2CC2)c1
Result :: > 7.00

Query :: State the measured pIC50 (UniProt Q13191) of COc1ccc(-c2cc(NC(=O)c3cc(CNC[C@H](C)OC)cn(C4CC4)c3=O)nc(C3CC3)c2)c(C(=O)N2CC(F)C2)c1
Result :: > 7.00

Query :: State the measured pIC50 (UniProt Q13191) of O=C(Nc1cc(-c2ccc(OC(F)F)cc2C(=O)N2CC(F)(F)C2)cc(C2CC2)n1)c1cc(CNC[C@@H]2COCCO2)cn(C2CC2)c1=O
Result :: > 7.00

Query :: State the measured pIC50 (UniProt Q13191) of CCn1cc(CNCC2CC2)cc(C(=O)Nc2cc(-c3ccc(C#N)cc3C(=O)N3CC(F)(F)C3)cc(C3CC3)n2)c1=O
Result :: > 7.00
